Target: human TREM2 (Homo sapiens, UniProt Q9NZC2)
Construct: expressed in transfected cells; host or cells: HEK293T
Sequence (Q9NZC2 19-230): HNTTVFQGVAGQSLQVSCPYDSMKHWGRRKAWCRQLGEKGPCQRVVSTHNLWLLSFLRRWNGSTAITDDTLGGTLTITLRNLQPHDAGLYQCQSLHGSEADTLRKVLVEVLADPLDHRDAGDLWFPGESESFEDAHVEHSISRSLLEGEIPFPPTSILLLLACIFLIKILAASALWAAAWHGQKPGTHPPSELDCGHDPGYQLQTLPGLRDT
Sequence (O43914 22-113 partner): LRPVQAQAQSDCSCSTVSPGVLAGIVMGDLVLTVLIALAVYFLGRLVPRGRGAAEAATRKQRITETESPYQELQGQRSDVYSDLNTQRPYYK
Assay: TREM2 agonist potency by cellular Syk phosphorylation (AlphaLisa) in HEK293T-hTREM2 cells
Type: cell-based
Conditions: Table D-2; HEK293 cells expressing human TREM2 and DAP12; pSyk AlphaLisa
PROPERTY NAME: EC50

Query string: # query: EC50 of entry Cc1cc(C2CCCN(c3nc(-c4ccc(C(F)(F)F)cc4F)c4sc(N(C)C)nc4n3)C2)ccn1 (racemic)
Result string: 50 to 500 nM

Query string: EC50 lookup needed for CN(C)c1nc2nc(N3CCC(F)(F)C(c4cnn(C5CC5)c4)C3)nc(-c3ccc(F)cc3F)c2s1 (centres unmarked) , thanks.
Result string: ≤ 50 nM

Query string: # input compound: CN(C)c1nc2nc(C3CCOC(c4ccc(=O)n(C)c4)C3)nc(-c3ccc(F)cc3F)c2s1 (racemic) ; wanted: its EC50
Result string: ≤ 50 nM

Query string: For the compound shown here, C[C@@H]1CN(c2nc(-c3ccc(Cl)cc3F)c3sc(N(C)C)nc3n2)C[C@H](c2cnn(C3CC3)c2)O1 (racemic) , give the reported EC50.
Result string: 50 to 500 nM

Query string: I am curious: what EC50 value has been reported for C[C@@H]1CN(c2nc(-c3ccc(Cl)cc3F)c3sc(N(C)CCO)nc3n2)C[C@H](c2cnn(C3CC3)c2)O1 (single isomer, unassigned) ?
Result string: 50 to 500 nM

Query string: // query EC50 value for entry CN(C)c1nc2nc(N3CCC(F)(F)[C@@H](c4cnn(C5CC5)c4)C3)nc(-c3ccc(C(F)(F)F)cc3F)c2s1 (single isomer, unassigned)
Result string: 50 to 500 nM

Query string: Dear colleague, I am looking for the recorded EC50 of the following compound: CN(C)c1nc2nc([C@@H]3CCO[C@@H](c4cnn(C5CC5)c4)C3)nc(-c3ccc(C(F)(F)F)cc3F)c2s1 (single isomer, unassigned)
Result string: 500 to 3000 nM

Query string: # query: EC50 of entry C[C@@H]1CN(c2nc(-c3ccc(Cl)cc3F)c3sc(N(C)CC4CC4)nc3n2)C[C@H](c2cnn(C3CC3)c2)O1
Result string: 50 to 500 nM

Query string: # query: EC50 of entry CC(C)n1cc2c(-c3ccc(F)cc3F)nc(N3C[C@@H](C)O[C@@H](c4cnn(C5CC5)c4)C3)nc2n1
Result string: 50 to 500 nM

Query string: Recorded EC50 for CCn1/c(=N\C)sc2c(-c3ccc(Cl)cc3F)nc(N3C[C@@H](C)O[C@@H](c4cnn(C5CC5)c4)C3)nc21 , please?
Result string: 500 to 3000 nM

Query string: For CN(C)c1nc2nc([C@H]3CCO[C@@H](c4cnn(C5CC5)c4)C3)nc(-c3ccc(F)cc3F)c2s1 (single isomer, unassigned) , what is its reported EC50?
Result string: 50 to 500 nM

Query string: Fill in: EC50 of CS(=O)(=O)c1nc2nc([C@H]3CCO[C@@H](c4cnn(C5CC5)c4)C3)nc(-c3ccc(C(F)(F)F)cc3N3CCC3)c2s1 is ___
Result string: 50 to 500 nM

Query string: So what's the measured EC50 for this one? CN(C)c1nc2nc(N3CCC(F)(F)C(c4cnn(C5CC5)c4)C3)nc(-c3ccc(C(F)(F)F)cc3F)c2s1 (racemic)
Result string: 50 to 500 nM

Query string: # input compound: Fc1cc(C(F)(F)F)ccc1-c1nc([C@H]2CCO[C@@H](c3cnn(C4CC4)c3)C2)nc2nc(C3CC3)sc12 (single isomer, unassigned) ; wanted: its EC50
Result string: ≤ 50 nM

Query string: So what does the record say about EC50 for COCn1cc([C@H]2CN(c3nc(-c4ccc(C(F)(F)F)cc4F)c4sc(N(C)C)nc4n3)C[C@@H](C)O2)cn1 ?
Result string: 50 to 500 nM

Query string: I would be grateful if you could share the reported EC50 for CN(C)c1nc2nc([C@H]3CCO[C@@H](c4cnn(C5CC5)c4)C3)nc(-c3ccc(F)cc3F)c2n1C .
Result string: 50 to 500 nM

Query string: Entry under review: Cc1cc([C@H]2CN(c3nc(-c4ccc(C(F)(F)F)cc4F)c4sc(N(C)C)nc4n3)CCC2(F)F)ccn1 (single isomer, unassigned) . Reported EC50?
Result string: 50 to 500 nM

Query string: State the recorded EC50 for this entry: CNc1nc2nc(N3C[C@@H](C)O[C@@H](c4cnn(C5CC5)c4)C3)nc(-c3ccc(Cl)cc3F)c2s1 (single isomer, unassigned)
Result string: 50 to 500 nM

Query string: # get_value(readout='EC50', item= CC(=O)N(C)c1nc2nc(N3C[C@@H](C)O[C@@H](c4cnn(C5CC5)c4)C3)nc(-c3ccc(Cl)cc3F)c2s1 (single isomer, unassigned) )
Result string: 50 to 500 nM

Query string: EC50 lookup needed for CO[C@@H]1CCN(c2nc3nc(N4C[C@@H](C)O[C@@H](c5cnn(C6CC6)c5)C4)nc(-c4ccc(F)cc4F)c3s2)C1 , thanks.
Result string: ≤ 50 nM

Query string: Which EC50 is reported for this compound? C[C@@H]1CN(c2nc(-c3ccc(C(F)(F)F)cc3F)c3sc(N(C)C)nc3n2)C[C@H](c2cnn(C3CC3)c2)O1
Result string: ≤ 50 nM

Query string: Requested field: EC50. Item: CO[C@H]1CCN(c2nc3nc([C@H]4CCO[C@@H](c5cnn(C6CC6)c5)C4)nc(-c4ccc(C(F)(F)F)cc4F)c3s2)C1
Result string: 50 to 500 nM

Query string: Query (compound): CN(C)c1nc2nc([C@H]3CCO[C@@H](c4cnn(C5CC5)c4)C3)nc(C3CCCCC3)c2s1 (single isomer, unassigned) ; field requested: EC50
Result string: 500 to 3000 nM
